Reported composite z-score is given for each of the following compounds.
test: binders of probe aFGF2 on microarray, primary screen, stem cell growth factor project, biochemical, small-molecule microarray, fluorescence 635/667 (AID 1067); conditions: higher = more signal;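 further: measures binding of biotinylated aFGF2 protein to printed compounds on slides; z-score merges feature fluorescence and signal-to-noise across triplicate slides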
Reported endpoint: composite z-score

Compound	Observed result
COC(=O)[C@@H]1CC[C@H](C)[C@@H](c2ccc(C)cc2)N1C(=O)c1ccc(C=NOC[C@@H](C)[C@H](OCc2ccccc2)C(C)C)cc1	-0.0707
CC(C)CON=C1C[C@@H](O)[C@@H](O)[C@@H]2[C@@H]3C(=O)N(C4CCCCC4)C(=O)[C@@H]3CC[C@H]12	-0.0383
CCOC(=O)[C@H](CC(C)C)NC(=O)CCC1CC(OC(=O)NCCc2ccc(F)cc2)CC2(CCCC(COC(=O)NCC3CCCCC3)O2)O1 (stereo partly specified)	-0.0652
CC(C)CON=C1C[C@@H](O)[C@@H](O)[C@@H]2[C@@H]3C(=O)N(c4cccc(Oc5ccccc5)c4)C(=O)[C@@H]3CC[C@@H]12	-0.13
COc1ccc(O[C@H]2C=C[C@@H](c3ccccc3)O[C@@H]2CON=C2[C@H]3CCn4c(=O)n(-c5ccccc5)c(=O)n4[C@H]3[C@H](O)[C@@H]3O[C@H]23)cc1	-0.0973
CCOC(=O)[C@H](CC(C)C)NC(=O)CCC1CC(OC(=O)NCc2cccc3ccccc23)CC2(CCCC(COC(=O)NCCc3ccc(Cl)cc3)O2)O1 (stereo partly specified)	-0.0797

----------
molecular target: Homeobox protein Hox-A13 (Mus musculus); test: inhibitors of HoxA13-DNA binding, primary screen, biochemical, fluorescence polarization, labeled oligonucleotide (AID 1185); conditions: 15 min, higher = more signal, called active from +8 up or from −8 down
Cut-off -2 on z-score, inclusive. At or above means fulfilled; below means not fulfilled.

Molecule	Group label
COC(=O)CC=C[C@@H](C)[C@@H](C=NO[C@@H](C)c1cc(-c2c(C)cc(C)cc2C)no1)NS(=O)(=O)c1ccc(C)cc1	not fulfilled
CCOC(=O)[C@H](CC(C)C)NC(=O)CCC1CC(OC(=O)NCc2ccc3c(c2)OCO3)CC2(CCCC(COC(=O)NCc3cccc(C(F)(F)F)c3)O2)O1 (some centres not stated)	fulfilled
CCOC(=O)[C@H](Cc1ccccc1)NC(=O)OC1CC(CCC2CC(CC)=NO2)OC2(CCCC(COC(=O)NCCC(C)C)O2)C1 (some centres not stated)	not fulfilled
Cc1cc2c(nc1C)CCCN2CC(O)CN1CCCc2nc(C)c(C)cc21	not fulfilled
CON=C[C@@H](NS(=O)(=O)c1ccc(C)cc1)[C@H](C)C=CCC(=O)OC	fulfilled
CO[C@@H]1COC(=O)CC=C[C@@H](C)[C@@H]2C=C[C@H](O)[C@@H](COC(=O)CC=C[C@H]1C)O2	not fulfilled
CC(C)CON=C1C[C@@H](O)[C@@H](O)[C@@H]2[C@@H]3C(=O)N(c4cccc(Oc5ccccc5)c4)C(=O)[C@@H]3CC[C@@H]12	fulfilled

----------
test system: XIP peptide (Xip251-270); assay: small-molecule binders of XIP peptide, primary screen, biochemical, small-molecule microarray, fluorescence 635/667 nm, 0.5 µg/mL protein (AID 1183); details: small-molecule microarray binding, fluorescence 635 nm; higher = more signal
Is composite z-score at least 0.4? Then class 1. If not, class 0.

Compound	Group label
COc1cccc([C@H]2Oc3ccc(OC)cc3C(=NOC[C@@H](C)[C@H](OCc3ccccc3)C(C)C)[C@@H]2O)c1	class 0
CCN1C(=O)[C@H]2[C@H]3[C@H](O)[C@H](O)CC(=O)[C@H]3CC[C@H]2C1=O	class 1
CCOC(=O)[C@H](Cc1ccccc1)NC(=O)CCC1CC(OC(=O)NCc2cccc3ccccc23)CC2(CCCC(COC(=O)NCC(c3ccccc3)c3ccccc3)O2)O1 (some centres not stated)	class 0
CCc1cc2c(nc1CC)CCN(CCC(C)=NO[C@@H](C)c1cn([C@H](CO)Cc3ccccc3)nn1)C2	class 1
C[C@@H]1NC(=O)[C@@H](C)COC(=O)[C@H](C)NC(=O)[C@@H](C)COC1=O	class 0
CCc1cc2c(nc1CC)CCN(CCC(C)=NO[C@H](C)c1cn([C@H](CO)Cc3ccccc3)nn1)C2	class 0
CC(C)=CCCC(C)=CCON=C1C[C@@H](O)[C@@H](O)[C@@H]2[C@@H]3C(=O)N(Cc4ccccc4)C(=O)[C@@H]3CC[C@H]12	class 1
